Attribution: ChEMBL document CHEMBL5247659

Recorded fraction unbound at 5 h, 10 µM by entry
test: Plasma protein binding in mouse assessed as unbound fraction at 10 uM measured for 5 hrs by equilibrium dialysis based LC-MS/MS analysis; assay type: ADME, cell-free
readout-name: fraction unbound at 5 h, 10 µM

>  <molecule>
O=C(Nc1cnccc1N1CCOCC1)c1ccnn2cc(-c3ccccc3)nc12

>  <readout-name>
fraction unbound at 5 h, 10 µM

>  <endpoint-value>
0.01

$$$$
>  <molecule>
CC1CN(c2ccncc2NC(=O)c2ccnn3cc(C4CC4)nc23)CCO1 (stereo unspecified)

>  <readout-name>
fraction unbound at 5 h, 10 µM

>  <endpoint-value>
0.031

$$$$
>  <molecule>
O=C(Nc1cnccc1-c1ccccc1)c1ccnn2cc(-c3ccccc3)nc12

>  <readout-name>
fraction unbound at 5 h, 10 µM

>  <endpoint-value>
0.003

$$$$
>  <molecule>
O=C(Nc1cnccc1-c1ccc(F)cc1)c1ccnn2cc(-c3ccccc3)nc12

>  <readout-name>
fraction unbound at 5 h, 10 µM

>  <endpoint-value>
0.002

$$$$
>  <molecule>
CC1CN(c2ccncc2NC(=O)c2ccnn3cc(-c4ccccc4)nc23)CCO1 (racemic)

>  <readout-name>
fraction unbound at 5 h, 10 µM

>  <endpoint-value>
0.009

$$$$
>  <molecule>
O=C(Nc1cnccc1N1CCC(F)(F)CC1)c1ccnn2cc(-c3ccccc3)nc12

>  <readout-name>
fraction unbound at 5 h, 10 µM

>  <endpoint-value>
0.002

$$$$
